# Tested on: SNB-75
# assay-summary: NCI tumour cell line growth inhibition, 48 h
The source made the active and inactive calls. Rule as the data show it: active = GI50 up to about 1.1 µM and inactive = higher.
parameter-measured: GI50

Cc1ccc(/N=N/C(=N/c2ccccc2)c2ccc(N(CCC#N)CCC#N)cc2)cc1 = 31.1 µM (inactive)
Cn1c(=O)c2[nH]c(C3CC(=O)CC(c4nc5c([nH]4)c(=O)n(C)c(=O)n5C)N3)nc2n(C)c1=O (stereo not given) = > 100 µM (inactive)
Cc1cc(C)nc(NS(=O)(=O)c2ccc(NC(=O)c3ccc(Cl)c4c(Nc5ccc(S(=O)(=O)N=C(N)N)cc5)c5ccccc5nc34)cc2)n1 = > 100 µM (inactive)
O=C1OC(OC/C(Br)=C(\Br)COC2OC(=O)C(Cl)=C2Cl)C(Cl)=C1Cl (stereo not given) = 15.9 µM (inactive)

Provide reported GI50 for each item, in the same order as listed.
1. CC(=O)OCc1ccc2oc(=O)c(C(=O)Oc3cccc(Cl)c3)cc2c1
2. COc1ccc2c(c1)CC1c3c(ccc(OC)c3O)CC2N1C (stereo not given)
3. OC(C/C=N/Nc1ccccc1)(C(F)(F)Cl)C(F)(F)Cl
4. CSc1ccc(NC(=S)NN(C)C)cc1
5. CC1=C(C)C(=O)C(C2=C(C3=CC(=O)C(C)=C(C)C3=O)C(=O)c3ccccc3C2=O)=CC1=O
6. CCCCCCCCCCCCCP(=O)(O)O
7. CCOC(=O)C1=C(C)C2C3C(=O)NC(=O)C3C1(C)C1C(=O)NC(=O)C21 (stereo not given)

Result:
1: 37.8 µM (inactive); 2: 38.3 µM (inactive); 3: 9.91 µM (inactive); 4: > 10 µM (inactive); 5: 9.79 µM (inactive); 6: 23.2 µM (inactive); 7: > 100 µM (inactive)

Batch lookup, GI50 per entry.
1. N#C[C@](CO)(NC(=O)OCc1ccccc1)C(F)F
2. CC(=O)Nc1ccc(C(=O)NN2C(=O)CSC2c2ccc(O)cc2)cc1 (stereo not given)

Result:
["> 100 µM (inactive)", "91.6 µM (inactive)"]

// each listed compound needs a value for GI50
1. OCC(O)CNc1ncnc2ccccc12 (stereo not given)
2. CC1(c2cccc3c2C2(O)C=CC4(CCC32)OCCO4)OCCO1 (stereo not given)
3. Cc1cc(C)n(CC(Cn2nc(C)cc2C)=C(/C(Cl)=C(/Cl)Nc2ccc([N+](=O)[O-])cc2)[N+](=O)[O-])n1
4. O=C1/C(=C/c2cccc3ccccc23)Cc2ccccc21

Result:
> 100 µM (inactive)
> 100 µM (inactive)
4.67 µM (inactive)
29.8 µM (inactive)

Parameters: items (list). Returns: GI50 for each item.
1. COC(=O)[C@]1(C)CCC[C@@]2(C)C1CC[C@@]13C=C(C(C)C)[C@@H](CC1=O)CC23 (stereo not given in full)
2. COC(=O)[C@]12CCC(C)(C)C[C@H]1C1=CC[C@@H]3[C@@]4(C)CC[C@H](OC5OC(CO)C(O)C(O)C5OC5OC(CO)C(O)C(O)C5O)C(C)(C)[C@@H]4CC[C@@]3(C)[C@]1(C)CC2 (stereo not given in full)
3. Cc1cc(C)c(S(=O)(=O)N2CCCN(S(=O)(=O)c3c(C)cc(C)cc3C)OCCCO2)c(C)c1

Result:
["59.7 µM (inactive)", "13.5 µM (inactive)", "57.1 µM (inactive)"]
